System: Klebsiella pneumoniae
Assay: Synergistic antibacterial activity against Klebsiella pneumoniae SIPI-KPN-1712 assessed as fractional Inhibitory concentration index in presence of polymixin B at 2 ug/ml by broth microdilution method
Type: functional
Here, each record is paired with measured fractional inhibitory concentration index (FICI) data.
# answer = number (no unit)

Below, each entry is followed by its recorded fractional inhibitory concentration index (FICI) result.
{"columns": ["MOLECULE", "READING"],
 "data": [
  ["Cc1ccc(Nc2nc3c(s2)C(OC(C)C)CCC3)cc1 (stereo not drawn)", 0.53],
  ["COC1CCCc2nc(Nc3ccc(Oc4ccc(F)cc4)cc3)sc21 (stereo not drawn)", 1.03],
  ["OC1CCCc2nc(Nc3ccccc3)sc21 (stereo not drawn)", 1.03]
]}

We now examine a further molecule.
The molecule listed as CCCCOC1CCCc2nc(Nc3ccc(C)cc3)sc21 (stereo not drawn) has a reported fractional inhibitory concentration index (FICI) of 1.03

---

Tested on: Klebsiella pneumoniae
Test: Synergistic antibacterial activity against Klebsiella pneumoniae SIPI-KPN-1712 assessed as polymixin B MIC at 4 ug/ml by broth microdilution method (reference value: 32 ug/ml)
Type: functional
Here, each record is paired with measured MIC data.
Only the number, expressed in µg/mL, is required.

{"columns": ["COMPOUND", "EXPERIMENTAL SYSTEM", "UNIT SPEC", "READING"],
 "data": [
  ["CCOC1CCCc2nc(Nc3ccc(C)cc3)sc21 (centres undefined)", "Klebsiella pneumoniae", "µg/mL", 4],
  ["CCCCOC1CCCc2nc(Nc3ccc(C)cc3)sc21 (centres undefined)", "Klebsiella pneumoniae", "µg/mL", 32],
  ["O=C(OC1CCCc2nc(Nc3ccc(F)cc3)sc21)n1ccnc1 (centres undefined)", "Klebsiella pneumoniae", "µg/mL", 32],
  ["COC1CCCc2nc(Nc3ccc(N(C)C)cc3)sc21 (centres undefined)", "Klebsiella pneumoniae", "µg/mL", 16],
  ["COC1CCCc2nc(Nc3ccc(C(C)(C)C)cc3)sc21 (centres undefined)", "Klebsiella pneumoniae", "µg/mL", 16],
  ["COC1CCCc2nc(Nc3cccc(C)c3C)sc21 (centres undefined)", "Klebsiella pneumoniae", "µg/mL", 32]
]}

Klebsiella pneumoniae data for COC1CCCc2nc(Nc3ccc(I)cc3)sc21 (centres undefined) ; its MIC: 16

Klebsiella pneumoniae data for COC1CCCc2nc(Nc3ccc(NC(C)=O)cc3)sc21 (centres undefined) ; its MIC: 32

Klebsiella pneumoniae data for COC1CCCc2nc(Nc3ccc(C#N)c(C(F)(F)F)c3)sc21 (centres undefined) ; its MIC: 16

---

Tested on: Klebsiella pneumoniae
Assay: Synergistic antibacterial activity against Klebsiella pneumoniae SIPI-KPN-1712 assessed as polymixin B MIC at 4 ug/ml by broth microdilution method (reference value: 32 ug/ml)
Assay type: functional
Here, each record is paired with measured log10 of MIC data.
A difference of one corresponds to tenfold MIC; all values are log10 with MIC in µg/mL.

Below, each entry is followed by its recorded log10 of MIC result.
{"columns": ["COMPOUND", "EXPERIMENTAL SYSTEM", "VALUE KIND", "READING"],
 "data": [
  ["CCCCOC1CCCc2nc(Nc3ccc(Cl)cc3)sc21 (stereo not drawn)", "Klebsiella pneumoniae", "log10 of MIC", 1.20],
  ["COC1CCCc2nc(Nc3ccc(Br)cc3)sc21 (stereo not drawn)", "Klebsiella pneumoniae", "log10 of MIC", 0.30],
  ["COC1CCCc2nc(Nc3ccccc3)sc21 (stereo not drawn)", "Klebsiella pneumoniae", "log10 of MIC", 1.51]
]}

Klebsiella pneumoniae data for COC1CCCc2nc(Nc3ccc4ccccc4n3)sc21 (stereo not drawn) ; its log10 of MIC: 1.51

Klebsiella pneumoniae data for Clc1ccc(Nc2nc3ccccc3s2)cc1 ; its log10 of MIC: 1.51

Klebsiella pneumoniae data for CCCC(CCC)OC1CCCc2nc(Nc3ccc(Cl)cc3)sc21 (stereo not drawn) ; its log10 of MIC: 0.60

Klebsiella pneumoniae data for O=C(OC1CCCc2nc(Nc3ccc(Cl)cc3)sc21)n1ccnc1 (stereo not drawn) ; its log10 of MIC: 1.51

Klebsiella pneumoniae data for Clc1ccc(Nc2nc3c(s2)C(OC2CCCC2)CCC3)cc1 (stereo not drawn) ; its log10 of MIC: 0.90

Klebsiella pneumoniae data for OC1CCCc2nc(Nc3ccc(Cl)cn3)sc21 (stereo not drawn) ; its log10 of MIC: 1.20

Klebsiella pneumoniae data for COC1CCCc2nc(NN3CCOCC3)sc21 (stereo not drawn) ; its log10 of MIC: 1.20

Klebsiella pneumoniae data for COC1CCCc2nc(Nc3ccc(Cl)cn3)sc21 (stereo not drawn) ; its log10 of MIC: 1.20

Klebsiella pneumoniae data for COC1CCCc2nc(Nc3ccc(C(F)(F)F)cc3)sc21 (stereo not drawn) ; its log10 of MIC: 0.90

Klebsiella pneumoniae data for COC1CCCc2nc(Nc3ccccc3C(F)(F)F)sc21 (stereo not drawn) ; its log10 of MIC: 1.20

---

Here, each record is paired with measured MIC data.
System: Klebsiella pneumoniae
Assay: Synergistic antibacterial activity against Klebsiella pneumoniae SIPI-KPN-1712 assessed as polymixin B MIC at 4 ug/ml by broth microdilution method (reference value: 32 ug/ml)
Format: functional
# number then unit; no other words

Below, each entry is followed by its recorded MIC result.
{"columns": ["COMPOUND", "MIC"],
 "data": [
  ["Cc1ccc(Nc2nc3c(s2)C(O)CCC3)cc1 (stereo not drawn)", "32 µg/mL"],
  ["COC1CCCc2nc(Nc3ccc(Oc4ccc(F)cc4)cc3)sc21 (stereo not drawn)", "32 µg/mL"],
  ["CCOC1CCCc2nc(Nc3ccc4ccccc4n3)sc21 (stereo not drawn)", "32 µg/mL"],
  ["CCOC1CCCc2nc(Nc3ccc(Cl)cc3)sc21 (stereo not drawn)", "1 µg/mL"],
  ["COC1CCCc2nc(Nc3cccc(C)c3)sc21 (stereo not drawn)", "32 µg/mL"],
  ["Clc1ccc(Nc2nc3ccc(Cl)cc3s2)cc1", "32 µg/mL"]
]}

The compound listed as COC1CCCc2nc(Nc3ccc(Oc4ccccc4C)cc3)sc21 (stereo not drawn) has a reported MIC of 16 µg/mL

The compound listed as O=C(OC1CCCc2nc(Nc3ccc(C(F)(F)F)cc3)sc21)n1ccnc1 (stereo not drawn) has a reported MIC of 16 µg/mL

The compound listed as COC1CCCc2nc(Nc3c(Cl)cccc3Cl)sc21 (stereo not drawn) has a reported MIC of 1 µg/mL

The compound listed as CCOC1CCCc2nc(Nc3ccc(F)cc3)sc21 (stereo not drawn) has a reported MIC of 16 µg/mL

The compound listed as COC1CCCc2nc(Nc3ccc(C#N)cc3)sc21 (stereo not drawn) has a reported MIC of 16 µg/mL

---

System: Klebsiella pneumoniae
Experiment: Synergistic antibacterial activity against Klebsiella pneumoniae SIPI-KPN-1712 assessed as fractional Inhibitory concentration index in presence of polymixin B at 2 ug/ml by broth microdilution method
Type: functional
VALUE KIND: fractional inhibitory concentration index (FICI)
# answer = number (no unit)

{"columns": ["COMPOUND", "READING"],
 "data": [
  ["COC1CCCc2nc(Nc3cccc(Cl)c3)sc21 (stereo not drawn)", 0.28],
  ["COC1CCCc2nc(Nc3ncccn3)sc21 (stereo not drawn)", 0.53],
  ["COC1CCCc2nc(Nc3ccc(NC(C)=O)cc3)sc21 (stereo not drawn)", 1.03],
  ["COC1CCCc2nc(Nc3nccs3)sc21 (stereo not drawn)", 1.03],
  ["COC1CCCc2nc(Nc3ccc(O)cc3)sc21 (stereo not drawn)", 1.03]
]}

The compound listed as CCOC1CCCc2nc(Nc3ccc4ccccc4n3)sc21 (stereo not drawn) has a reported fractional inhibitory concentration index (FICI) of 1.03

---

Test system: Klebsiella pneumoniae
Test: Synergistic antibacterial activity against Klebsiella pneumoniae SIPI-KPN-1712 assessed as fractional Inhibitory concentration index in presence of polymixin B at 2 ug/ml by broth microdilution method
Type: functional
Here, each record is paired with measured fractional inhibitory concentration index (FICI) data.
# answer = number (no unit)

{"columns": ["COMPOUND", "READING"],
 "data": [
  ["CCc1ccc(Nc2nc3c(s2)C(OC)CCC3)cc1 (centres undefined)", 1.03],
  ["COC1CCCc2nc(Nc3ccc4ccccc4c3)sc21 (centres undefined)", 1.03]
]}

The compound listed as COC1CCCc2nc(Nc3cccc(C(F)(F)F)c3)sc21 (centres undefined) has a reported fractional inhibitory concentration index (FICI) of 0.53

The compound listed as CC(=O)c1ccc(Nc2nc3c(s2)C(O)CCC3)cc1 (centres undefined) has a reported fractional inhibitory concentration index (FICI) of 0.53

The compound listed as COC1CCCc2nc(Nc3ccnc(Cl)c3)sc21 (centres undefined) has a reported fractional inhibitory concentration index (FICI) of 0.16

The compound listed as CCOC1CCCc2nc(Nc3ccc(Cl)cc3)sc21 (centres undefined) has a reported fractional inhibitory concentration index (FICI) of 0.06
